Parameter Emax: see the listing below.
molecular target: human MC3R (Homo sapiens, UniProt P41968); construct: expressed in transfected cells; host or cells: HEK-293 cells stably expressing the GScAMP22F split-luciferase cAMP sensor (parent reporter line from Promega); MC3R clone generated in-house, G418 selection; experiment: split-luciferase cAMP sensor assay, agonist mode (measurement window 1), hMC3R; format: cell-based; conditions: % maximal activation, agonist mode; read-out: MC3R cAMP % max activation
Sequence (P41968 whole entry): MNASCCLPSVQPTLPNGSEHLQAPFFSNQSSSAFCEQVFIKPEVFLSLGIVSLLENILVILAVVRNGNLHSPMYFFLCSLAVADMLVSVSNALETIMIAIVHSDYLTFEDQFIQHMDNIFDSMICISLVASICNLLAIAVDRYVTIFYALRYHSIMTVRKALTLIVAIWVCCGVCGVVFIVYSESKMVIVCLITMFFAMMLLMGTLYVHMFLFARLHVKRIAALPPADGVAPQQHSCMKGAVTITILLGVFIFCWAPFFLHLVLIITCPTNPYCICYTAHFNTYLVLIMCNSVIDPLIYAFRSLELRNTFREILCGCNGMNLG
Positions of bridges follow the written chain, without caps; N, C: chain ends. Non-standard residues stand in square brackets, D forms with d. Residues, ends and D or L forms follow the SMILES beside them. 2Nal = N[C@@H](Cc1ccc2ccccc2c1)C(=O)O; Cit = NC(=O)NCCC[C@H](N)C(=O)O; Nle = CCCC[C@H](N)C(=O)O; Aib = CC(C)(N)C(=O)O

COMPOUND	UNIT_NAME	Emax
CC(=O)N[C@@H](CCCNC(=N)N)C(=O)N[C@H]1CSSC[C@@H](C(N)=O)NC(=O)[C@H](Cc2c[nH]c3ccccc23)NC(=O)[C@H](CCCNC(=N)N)NC(=O)[C@@H](Cc2ccccc2)NC(=O)[C@H](CCCNC(=N)N)NC(=O)C(C)(C)NC1=O [CTX-1292, Arg-cyclo(Cys-Aib-Arg-D-Phe-Arg-Trp-Cys)] (Ac-RC[Aib]R[dF]RWC-NH2; disulfide 2-8 (inferred))	%	76
CC(=O)N[C@H]1CSSC[C@@H](C(N)=O)NC(=O)[C@H](Cc2c[nH]c3ccccc23)NC(=O)[C@H](CCCNC(=N)N)NC(=O)[C@@H](Cc2ccccc2)NC(=O)[C@H](CCCNC(N)=O)NC(=O)[C@@H](C)NC1=O [CTX-1628, cyclo(Cys-D-Ala-Cit-D-Phe-Arg-Trp-Cys)] (Ac-C[dA][Cit][dF]RWC-NH2; disulfide 1-7 (inferred))	%	45
CCCC[C@H](NC(C)=O)C(=O)N[C@H]1CSSC[C@@H](C(=O)N[C@@H](CCCNC(=N)N)C(=O)N[C@@H](Cc2ccccc2)C(=O)NCC(N)=O)NC(=O)[C@@H](Cc2c[nH]c3ccccc23)NC(=O)[C@H](CCCNC(=N)N)NC(=O)[C@H](Cc2ccc3ccccc3c2)NC(=O)[C@H](Cc2c[nH]cn2)NC1=O [CTX-2128] (Ac-[Nle]CH[2Nal]R[dW]CRFG-NH2; disulfide 2-7 (inferred))	%	99

====

assay: Plasma protein binding (Centrifree ultrafiltration); type: in vitro ADME; settings: 0.1 uM
Positions of bridges follow the written chain, without caps; N, C: chain ends. Non-standard residues stand in square brackets, D forms with d. Residues, ends and D or L forms follow the SMILES beside them. dPhe(4-Br) = N[C@H](Cc1ccc(Br)cc1)C(=O)O; Nle = CCCC[C@H](N)C(=O)O
MEASURED_QUANTITY: fraction unbound at 5 min, 0.1 µM

COMPOUND	QUANTITATIVE_RESULT
CC(=O)N[C@@H](CCCNC(=N)N)C(=O)N[C@H]1CSSC[C@@H](C(N)=O)NC(=O)[C@H](Cc2c[nH]c3ccccc23)NC(=O)[C@H](CCCNC(=N)N)NC(=O)[C@@H](Cc2ccccc2)NC(=O)[C@H](CCCNC(N)=O)NC(=O)[C@@H](C)NC1=O	0.55
CCCC[C@H](NC(=O)[C@H](CCCNC(=N)N)NC(C)=O)C(=O)N[C@H]1CSSC[C@@H](C(N)=O)NC(=O)[C@H](Cc2c[nH]c3ccccc23)NC(=O)[C@H](CCCNC(=N)N)NC(=O)[C@@H](Cc2ccccc2)NC(=O)[C@H](CCCNC(=N)N)NC1=O [CTX-1228, Arg-Nle-cyclo(Cys-Arg-D-Phe-Arg-Trp-Cys)] (Ac-R[Nle]CR[dF]RWC-NH2; disulfide 3-8 (inferred))	0.63
CC(=O)N[C@@H](CCCNC(=N)N)C(=O)N[C@H]1CSSC[C@@H](C(N)=O)NC(=O)[C@H](Cc2c[nH]c3ccccc23)NC(=O)[C@H](CCCNC(=N)N)NC(=O)[C@@H](Cc2ccccc2)NC(=O)[C@H](CCCNC(=N)N)NC(=O)[C@@H](C)NC1=O [CTX-1211] (Ac-RC[dA]R[dF]RWC-NH2; disulfide 2-8 (inferred))	0.49
CC(=O)N[C@@H](CCCNC(=N)N)C(=O)N[C@H]1CSSC[C@@H](C(N)=O)NC(=O)[C@H](Cc2ccccc2)NC(=O)[C@H](CCCNC(=N)N)NC(=O)[C@@H](Cc2ccc(Br)cc2)NC(=O)[C@H](CCCNC(=N)N)NC(=O)[C@@H](C)NC1=O [CTX-1258] (Ac-RC[dA]R[dPhe(4-Br)]RFC-NH2; disulfide 2-8)	0.53
